The compounds listed here are annotated with their pIC50.
assay-name: Cytotoxicity against human CWR22 cells
Format: functional, cell-based
As a rule, pIC50 stands for the negative log10 of the concentration, concentration in M.

sample-smiles	pIC50
COc1ccc(C(=O)c2coc3c(Cl)cc(O)c(Cl)c23)cc1	4.00
COc1ccc(C(=O)c2coc3c(Br)c(Br)c(O)cc23)cc1OC	4.00
COc1ccc(C(=O)c2coc3cc(Br)c(O)cc23)cc1	4.33

Here's the next entry for you.
Reported pIC50 of COc1ccc(C(=O)c2coc3cc(Cl)c(O)c(Cl)c23)cc1 : 4.00

###

measured-target: Peptide deformylase, mitochondrial (Homo sapiens)
Sequence (whole entry): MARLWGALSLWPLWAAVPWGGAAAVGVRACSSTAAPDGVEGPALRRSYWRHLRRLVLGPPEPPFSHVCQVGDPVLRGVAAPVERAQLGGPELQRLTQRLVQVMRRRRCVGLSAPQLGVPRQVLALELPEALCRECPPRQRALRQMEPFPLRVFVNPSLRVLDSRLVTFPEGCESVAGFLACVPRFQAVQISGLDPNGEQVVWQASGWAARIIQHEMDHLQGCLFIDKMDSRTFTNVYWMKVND
assay-name: Inhibition of human peptide deformylase at 100 uM after 1 hr by fluorescence polarization based competition assay
measured-property: inhibition (%)
Form entry: value (%) — number only.

sample-smiles	measured-target	measured-property	recorded-result
COc1cc(C(=O)c2coc3c(Cl)c(Cl)c(O)cc23)cc(OC)c1OC	Peptide deformylase, mitochondrial (Homo sapiens)	inhibition	18
COc1ccc(C(=O)c2coc3c2C(=O)C(=O)C(Cl)=C3)cc1	Peptide deformylase, mitochondrial (Homo sapiens)	inhibition	100
COc1ccc(C(=O)c2coc3c2C(=O)C(=O)c2ccccc2-3)cc1	Peptide deformylase, mitochondrial (Homo sapiens)	inhibition	0
COc1ccc(C(=O)c2coc3c2C(=O)C(=O)C=C3Br)cc1	Peptide deformylase, mitochondrial (Homo sapiens)	inhibition	100
COc1ccc(C(=O)c2coc3ccc(O)c(Br)c23)cc1	Peptide deformylase, mitochondrial (Homo sapiens)	inhibition	0
COc1ccc(C(=O)c2coc3c(Br)cc(O)c(Br)c23)cc1	Peptide deformylase, mitochondrial (Homo sapiens)	inhibition	0

Reported inhibition of COc1ccc(C(=O)c2coc3c(Br)c(Br)c(O)cc23)cc1 : 0

###

The molecules listed here are annotated with their inhibition.
measured-target: Aminopeptidase N (Sus scrofa) (UniProt P15145)
Sequence (P15145 whole entry): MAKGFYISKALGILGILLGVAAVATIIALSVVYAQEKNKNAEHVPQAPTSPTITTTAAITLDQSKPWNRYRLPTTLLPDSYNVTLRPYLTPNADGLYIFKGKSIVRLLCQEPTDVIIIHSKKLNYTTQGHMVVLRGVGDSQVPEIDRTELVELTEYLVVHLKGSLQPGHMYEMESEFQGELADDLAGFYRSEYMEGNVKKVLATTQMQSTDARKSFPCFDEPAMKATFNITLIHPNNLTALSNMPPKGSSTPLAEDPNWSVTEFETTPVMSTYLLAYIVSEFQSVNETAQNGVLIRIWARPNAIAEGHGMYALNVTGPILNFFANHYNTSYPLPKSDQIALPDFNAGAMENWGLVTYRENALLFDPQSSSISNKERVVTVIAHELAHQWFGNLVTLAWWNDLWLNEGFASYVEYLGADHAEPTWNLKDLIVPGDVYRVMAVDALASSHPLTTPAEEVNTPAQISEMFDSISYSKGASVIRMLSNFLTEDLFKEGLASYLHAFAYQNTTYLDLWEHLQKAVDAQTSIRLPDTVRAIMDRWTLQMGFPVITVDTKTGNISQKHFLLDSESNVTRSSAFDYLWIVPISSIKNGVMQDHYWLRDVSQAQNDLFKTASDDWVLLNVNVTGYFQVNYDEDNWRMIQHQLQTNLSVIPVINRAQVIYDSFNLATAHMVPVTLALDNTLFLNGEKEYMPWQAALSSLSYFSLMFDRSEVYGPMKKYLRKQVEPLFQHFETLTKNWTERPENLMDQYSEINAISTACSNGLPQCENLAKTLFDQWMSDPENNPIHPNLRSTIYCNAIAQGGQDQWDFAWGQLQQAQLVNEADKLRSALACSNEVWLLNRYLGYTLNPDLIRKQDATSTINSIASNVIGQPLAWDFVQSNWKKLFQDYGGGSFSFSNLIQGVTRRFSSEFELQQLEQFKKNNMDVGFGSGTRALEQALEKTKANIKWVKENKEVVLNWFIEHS
assay-name: Inhibition of porcine kidney microsomal aminopeptidase N at 100 uM after 1 hr by fluorescence polarization based competition assay
Form entry: value (%) — number only.

sample-smiles	scale-unit	inhibition
COc1ccc(C(=O)c2coc3c(Cl)c(Cl)c(O)cc23)cc1OC	%	0
COc1ccc(C(=O)c2coc3ccc(O)c(Br)c23)cc1	%	0
COc1ccc(C(=O)c2coc3c2C(=O)C(=O)C(Br)=C3Br)cc1OC	%	96

Reported inhibition of COc1ccc(C(=O)c2coc3c(Br)cc(O)cc23)cc1 : 0

Reported inhibition of COc1ccc(C(=O)c2coc3c2C(=O)C(=O)C=C3)cc1 : 4

Reported inhibition of COc1ccc(C(=O)c2coc3c2C(=O)C(=O)C(Cl)=C3)cc1 : 54

###

The molecules listed here are annotated with their inhibition.
measured-target: Interstitial collagenase (Homo sapiens) (UniProt P03956)
Sequence (P03956 whole entry): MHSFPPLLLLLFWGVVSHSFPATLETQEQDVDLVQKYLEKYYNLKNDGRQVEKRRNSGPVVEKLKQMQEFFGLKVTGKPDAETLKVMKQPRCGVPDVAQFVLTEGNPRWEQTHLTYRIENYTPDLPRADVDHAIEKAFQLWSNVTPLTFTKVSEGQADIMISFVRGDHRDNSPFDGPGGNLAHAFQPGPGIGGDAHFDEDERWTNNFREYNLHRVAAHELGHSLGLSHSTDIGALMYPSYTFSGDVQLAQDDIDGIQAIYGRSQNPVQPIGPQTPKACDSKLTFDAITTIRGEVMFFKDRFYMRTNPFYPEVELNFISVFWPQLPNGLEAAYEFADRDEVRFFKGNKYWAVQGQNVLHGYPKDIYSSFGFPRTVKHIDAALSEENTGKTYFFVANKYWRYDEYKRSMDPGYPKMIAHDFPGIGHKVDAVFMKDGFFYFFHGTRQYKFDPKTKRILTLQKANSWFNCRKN
assay-name: Inhibition of human recombinant MMP1 at 100 uM after 1 hr by fluorescence polarization based competition assay
Form entry: value (%) — number only.

Here are 3 molecules together with their reported answers.
sample-smiles	measured-target	recorded-result
COc1ccc(C(=O)c2coc3c2C(=O)C(=O)C(Br)=C3)cc1	Interstitial collagenase (Homo sapiens) (UniProt P03956)	26
COc1ccc(C(=O)c2coc3c2C(=O)C(=O)C=C3Cl)cc1	Interstitial collagenase (Homo sapiens) (UniProt P03956)	10
O=C(c1ccccc1)c1coc2ccc(O)cc12	Interstitial collagenase (Homo sapiens) (UniProt P03956)	0

For the molecule COc1ccc(C(=O)c2coc3c(Br)c(Br)c(O)cc23)cc1 , the measured inhibition on Interstitial collagenase (Homo sapiens) (UniProt P03956) was 2

For the molecule COc1ccc(C(=O)c2coc3c2C(=O)C(=O)C(Br)=C3Br)cc1OC , the measured inhibition on Interstitial collagenase (Homo sapiens) (UniProt P03956) was 46

For the molecule COc1ccc(C(=O)c2coc3c2C(=O)C(=O)C(Cl)=C3)cc1 , the measured inhibition on Interstitial collagenase (Homo sapiens) (UniProt P03956) was 11

For the molecule COc1ccc(C(=O)c2coc3cc(Cl)c(O)c(Cl)c23)cc1 , the measured inhibition on Interstitial collagenase (Homo sapiens) (UniProt P03956) was 0

For the molecule COc1ccc(C(=O)c2coc3ccc(O)c(Br)c23)cc1 , the measured inhibition on Interstitial collagenase (Homo sapiens) (UniProt P03956) was 0

For the molecule COc1ccc(C(=O)c2coc3c2C(=O)C(=O)c2ccccc2-3)cc1 , the measured inhibition on Interstitial collagenase (Homo sapiens) (UniProt P03956) was 2

For the molecule COc1ccc(C(=O)c2coc3c2C(=O)C(=O)C=C3Br)cc1 , the measured inhibition on Interstitial collagenase (Homo sapiens) (UniProt P03956) was 8

For the molecule COc1ccc(C(=O)c2coc3ccc(O)cc23)cc1 , the measured inhibition on Interstitial collagenase (Homo sapiens) (UniProt P03956) was 0

For the molecule COc1ccc(C(=O)c2coc3c2C(=O)C(=O)c2ccccc2-3)cc1OC , the measured inhibition on Interstitial collagenase (Homo sapiens) (UniProt P03956) was 0

###

assay-name: Cytotoxicity against human CWR22 cells
Assay type: functional, cell-based
The compounds listed here are annotated with their pIC50.
As a rule, pIC50 stands for the negative log10 of the concentration, concentration in M.

Here are 2 compounds together with their reported answers.
sample-smiles	pIC50
COc1ccc(C(=O)c2coc3c2C(=O)C(=O)C=C3)cc1	4.46
O=C(c1ccccc1)c1coc2ccc(O)cc12	4.00

Here's the next entry for you.
Reported pIC50 of COc1ccc(C(=O)c2coc3c2C(=O)C(=O)C(Br)=C3Br)cc1OC : 4.00

###

assay-name: Cytotoxicity against human CWR22 cells
Format: functional, cell-based
measured-property: pIC50
As a rule, pIC50 stands for the negative log10 of the concentration, concentration in M.

sample-smiles	pIC50
O=C(c1ccccc1)c1coc2c(Cl)c(Cl)c(O)cc12	4.00

Reported pIC50 of COc1ccc(C(=O)c2coc3c2C(=O)C(=O)C(Br)=C3Br)cc1 : 4.15

Reported pIC50 of COc1ccc(C(=O)c2coc3c(Br)cc(O)c(Br)c23)cc1 : 4.24

Reported pIC50 of COc1ccc(C(=O)c2coc3c(Cl)c(Cl)c(O)cc23)cc1 : 4.00

Reported pIC50 of O=C1C=Cc2occ(C(=O)c3ccccc3)c2C1=O : 4.52

Reported pIC50 of COc1ccc(C(=O)c2coc3ccc(O)cc23)cc1 : 4.00
